Give DcR3-His binding, % of irrelevant mAb for every item shown.
# assayedSystem: T1, human LIGHT (TNFSF14), full length, membrane-bound (214E allele) (human, UniProt O43557 1-240)
# T1 construct: also called membrane LIGHT; human membrane LIGHT
# T1 sequence (O43557 whole entry K214E): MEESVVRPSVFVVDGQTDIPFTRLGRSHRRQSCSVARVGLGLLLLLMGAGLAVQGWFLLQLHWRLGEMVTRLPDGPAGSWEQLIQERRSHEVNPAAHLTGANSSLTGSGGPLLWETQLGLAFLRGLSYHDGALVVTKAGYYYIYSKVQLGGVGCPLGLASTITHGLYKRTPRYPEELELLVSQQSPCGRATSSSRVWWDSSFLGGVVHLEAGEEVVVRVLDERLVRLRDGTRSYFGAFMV
# testProtocol: DcR3-His (1 nM) competition, EL4-LIGHT, flow cytometry; 1.23 nM

q: Requested field: DcR3-His binding, % of irrelevant mAb. Item: 3C10 (antibody, human IgG4, V domains shown, chimeric human IgG4 (S-to-P, L-to-E at 248), human CL; also called Parental 3C10) VH: EVQLQQSGAELVRPGASVTLSCKASDYTFTDSEIHWVKQTPVHGLEWIGEIDPETGGTAYNQKFKGKATLTADKSSSTAYMELRSLTSEDSAVYYCSRETDYFFDYWGQGTTLTVSS VL: DVVMTQTPAIMSASPGEKVTMTCSASSSVSYMYWYQQKPGSSPRLLIYDTSNLASGVPVRFSGSGSGTSYSLTISRMEAEDAATYYCQQWSSYPLTFGAGTKLELK
a: 95.5%

q: Requested field: DcR3-His binding, % of irrelevant mAb. Item: 2E08 (antibody, human IgG4, V domains shown, chimeric human IgG4 (S-to-P, L-to-E at 248), human CL; also called Parental 2E08) VH: QVQMKESGAELVRPGVSVKISCKGSGYTFTDYAIHWVKQSHAKTLEWIGVISTYYGDASYNQKFKGKATMTVDKSSSTAYMELARLTSDDSAIYYCARSRGEYGNYDAMDYWGQGTSVTVSS VL: DIVLTQSPASLAVSLGQRATISCKASQSVDYDGDSYMNWYQQKPGQPPKLLIYAASNLESGIPARFSGSGSGTDFTLNIHPVEEEDAATYYCQQSNEDPLTFGAGTKLELK
a: 118%

q: Requested field: DcR3-His binding, % of irrelevant mAb. Item: 3B04 (antibody, human IgG4, V domains shown, chimeric: mouse variable domains on human IgG4 HC (S-to-P and L-to-E at 248) and human CL; also called Parental 3B04; 3B04 chimeric) VH: QVQLQQPGAELVRPGASVTLSCKASGYTFTDYEMHWVKQTPVHGLEWIGEIDPETGDTAYSQKFKGKATLTADKSSSTAYMEFRSLTSEDSAVYYCSRETDYFFDYWGQGTTLTVSS VL: DIQMTQTPASLSASVGETVTITCGASENIYGALNWYQRKQGKSPQLLIYGATNLADGMSSRFSGSGSGRQYSLKISSLHPDDFATYYCQNVLTTPWTFGGGTKLEIKR
a: 75.1%
